Value source: ChEMBL document CHEMBL1148376

- measurementTarget: Norepinephrine transporter (Rattus norvegicus, UniProt Q9WTR4)
- Sequence (Q9WTR4 whole entry): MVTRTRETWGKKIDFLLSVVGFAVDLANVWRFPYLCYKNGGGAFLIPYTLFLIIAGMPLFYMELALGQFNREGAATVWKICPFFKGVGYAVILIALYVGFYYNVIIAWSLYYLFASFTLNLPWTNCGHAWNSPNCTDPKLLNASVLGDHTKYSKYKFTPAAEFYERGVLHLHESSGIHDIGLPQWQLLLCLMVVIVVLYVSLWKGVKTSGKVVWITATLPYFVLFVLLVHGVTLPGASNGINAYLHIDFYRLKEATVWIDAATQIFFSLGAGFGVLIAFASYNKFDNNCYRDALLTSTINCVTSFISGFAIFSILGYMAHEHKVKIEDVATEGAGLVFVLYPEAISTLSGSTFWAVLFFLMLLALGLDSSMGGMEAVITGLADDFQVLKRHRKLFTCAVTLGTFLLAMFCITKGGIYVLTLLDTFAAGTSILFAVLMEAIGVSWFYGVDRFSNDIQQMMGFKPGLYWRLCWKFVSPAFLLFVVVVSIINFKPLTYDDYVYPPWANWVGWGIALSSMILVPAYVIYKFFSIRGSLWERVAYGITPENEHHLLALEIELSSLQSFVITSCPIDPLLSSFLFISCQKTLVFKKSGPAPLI
- experimentSummary: Inhibition of norepinephrine transporter (NET) determined using [3H]nisoxetine radioligand.
pIC50: −log10 of the molar value.
pIC50 below 6 gives 0 (no); pIC50 at or above it gives 1 (yes).

Exam item: Has CN1C2CC[C@@H]1C[C@H](c1ccc(Cl)cc1)C2c1cc(-c2ccccc2)no1 (stereo not given in full) a recorded pIC50 greater than or equal to 6?
Marked response: 0 (no)

Exam item: Has Cc1ccc(C2CC3CCC(C2c2cc(-c4ccccc4)no2)N3C)cc1 (stereo not given) a recorded pIC50 greater than or equal to 6?
Marked response: 1 (yes)

Exam item: Has CN1C2CCC1C(c1cc(C(C)(C)C)no1)C(c1ccc(Cl)cc1)C2 (stereo not given) a recorded pIC50 greater than or equal to 6?
Marked response: 0 (no)

Exam item: Has CN1C2CCC1C(c1ccno1)C(c1ccc(Cl)cc1)C2 (stereo not given) a recorded pIC50 greater than or equal to 6?
Marked response: 1 (yes)

Exam item: Has CCc1cc(C2C(c3ccc(C)cc3)CC3CCC2N3C)on1 (stereo not given) a recorded pIC50 greater than or equal to 6?
Marked response: 1 (yes)

Exam item: Has Cc1ccc(-c2cc(C3C(c4ccc(Cl)cc4)CC4CCC3N4C)on2)cc1 (stereo not given) a recorded pIC50 greater than or equal to 6?
Marked response: 0 (no)

Exam item: Has CN1C2CCC1C(C(=O)Oc1ccccc1)C(c1ccc(Cl)cc1)C2 (stereo not given) a recorded pIC50 greater than or equal to 6?
Marked response: 0 (no)
